target: Neuronal acetylcholine receptor; alpha3/beta4 (Homo sapiens, UniProt P30926+P32297); assay: Inhibition of Ach evoked currents at alpha3-beta4 nicotinic acetylcholine receptor by 20 uM concentration; format: functional
Outcome Measure: inhibition (%)
Your answer should be a plain number; it is taken to be in %.

Past entries and their recorded results:
{"columns": ["Compound", "inhibition, %"],
 "data": [
  ["COCC[C@H]1CC2CN3CCc4c([nH]c5ccccc45)[C@](C(=O)NCCO)(C2)[C@H]13", 85],
  ["COCCNC(=O)[C@@]12CC3C[C@H](CCOC)[C@@H]1N(CCc1c2[nH]c2ccccc12)C3", 96],
  ["COCC[C@H]1CC2CN3CCc4c([nH]c5ccccc45)[C@](C(=O)NCCN(C)C)(C2)[C@H]13", 93]
]}

The measured inhibition associated with COCC[C@H]1CC2CN3CCc4c([nH]c5ccccc45)[C@](C(=O)OCCO)(C2)[C@H]13 reads 97

// inhibition value for COCCC1C2CN3CCc4c([nH]c5ccccc45)[C@](C(=O)OC)(C2)[C@H]13 (stereo not given in full) : 94
